biological target: recombinant full-length Pfs48/45 (Plasmodium falciparum 3D7, UniProt Q8I6T1); assay: ELISA; details: both partners purified
Sequence (Q8I6T1 28-428): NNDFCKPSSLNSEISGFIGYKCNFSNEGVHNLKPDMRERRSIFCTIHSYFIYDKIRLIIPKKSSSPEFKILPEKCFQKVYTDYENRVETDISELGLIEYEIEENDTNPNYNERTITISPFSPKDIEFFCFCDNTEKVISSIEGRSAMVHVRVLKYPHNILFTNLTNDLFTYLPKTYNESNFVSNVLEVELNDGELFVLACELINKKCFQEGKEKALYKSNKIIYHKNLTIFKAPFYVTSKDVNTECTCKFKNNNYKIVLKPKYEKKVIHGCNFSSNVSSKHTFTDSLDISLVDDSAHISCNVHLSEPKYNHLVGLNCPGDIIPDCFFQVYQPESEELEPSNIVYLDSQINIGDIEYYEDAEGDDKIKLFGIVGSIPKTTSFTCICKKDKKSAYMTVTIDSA

binder	binding result
RUPA-67 (antibody, V domains shown, human IgG1; source: recombinant human IgG1, 293T (Protein A purified) or GenScript) VH: QVQLLESGPGLVKPSETLSLTCTVSGASISTSYWSWIRQPAGKGLEWIGRFHISESSNYNPSLKSRLTLSADTSKNQVSLRLSSVTAADTAVYYCARDVSPEECVSTKCYRRPGYMDVWGKGTSVTVSS VL: DIQMTQSPSSLSASVGDRVTITCRASQSIRNYLNWYLQKPGKAPKLLIFGASSLQSGVPSRFSGSGSGTDFTLTISSLLPEDFATYYCQQSYTTPRTFGQGTKVEIK	binds
RUPA-58 (antibody, V domains shown, human IgG1; source: recombinant human IgG1, 293T (Protein A purified) or GenScript) VH: QVQLVQSGPEAKKPGASVKVSCQASGYPFSGYYMHWLRQAPGQGLEWMGWMNPNSGGTKYAQRFQGRVTMTRDTSISTAHMELRGLRSDDTAVYYCARDYCTGSSCYRTDYDYWGQGTLVTVSS VL: DIQMTQSPSSLSASVGDRVTITCRASQIISTYLNWYQHKPGKAPKLLIKSASTLQSGVPSRFSGSGSGTDFTLTITSLQPEDFATFYCQQSYRDPITFGQGTRLEIK	binds
RUPA-41 (antibody, V domains shown, human IgG1; source: recombinant human IgG1, 293T (Protein A purified) or GenScript) VH: QVQLVQSGAELKKPGASVKVSCKASGYTFTSHDITWVRQAAGQGLEWMGWMNPNTGDKGYAQKFQGRVTLTRNMSTRTAYMELNSLTSEDTAVYYCARGVGTYHGAGGWFDPWGQGTLVTVSS VL: QSVVTQPPSVSETPGQRVTISCSGSSSNIGSNIVSWYQQLPGTAPKLLIYSDTQRPSGVPDRFSASKSGTSASLAISGLHSEDEADYYCATWDDSLKRGVFGGGTKLTVL	binds
RUPA-78 (antibody, V domains shown, human IgG1; source: recombinant human IgG1, 293T (Protein A purified) or GenScript) VH: EGQLLESGGDLVQPGGSLRLSCAASRFTFNTFAMTWVRQAPGKGLEWVSTISRSGSSTFYADSVKGRFTISRDNSKDTLYLQMNSLRAEDTALYSCAKFRTPRFSSSSGDALDLWGQGTMVTVSS VL: EIVLTQSPGTLSLSPGERATLSCRASQSVSSSYFAWYQRRPGQAPRLVIDGASSRATGIPDRFSGSGSGTDFTLTISRLEPEDFAVYYCQQYGVSPGTFGQGTKLEIK	binds
RUPA-74 (antibody, V domains shown, human IgG1; source: recombinant human IgG1, 293T (Protein A purified) or GenScript) VH: QVQLVQSGAEVKKPGASVKVSCKASGYNFLYHDINWVRQAPGQGLEWMGWMNPNTGNRGYAQQFQDRVSLTRDMSQGTAYMELRNLRSDDTAVYYCARGVGSLYGSGGWIDPWGQGTLVTVSS VL: QSVLTQPPSASETPGQRVTISCSGSSSNIGSNTVNWYQQVPGTAPKLLMYNDNHRPSGVSDRFSGSKSGTSASLAISGLQSADEADYYCETWDDSLKRRVFGGGTKLTVL	binds
RUPA-46 (antibody, V domains shown, human IgG1; source: recombinant human IgG1, 293T (Protein A purified) or GenScript) VH: QVQLVQSGGGLVKPGGSLKLSCAASGFAFSDYYMHWIRQSPGKGLEWISYVSNSGNTIYYADSVKGRFTISRDNTKNSLFLQMNSLSADDTAVYYCARDRKGRNSETYYGALDVWGQGTTVTVST VL: DIVMTQSLDSLAVSLGERATINCKSSQSVFSTYNNKNYLAWYQQKLGQPPKLLIYWASTRESGVPDRFSGSGSGTDFTLTISSLQAEDVAVYYCQQYYTTPTWTFGQGTKVEIK	binds
RUPA-30 (antibody, V domains shown, human IgG1; source: recombinant human IgG1, 293T (Protein A purified) or GenScript) VH: QVQLVQSGAEVKKPGASVKVSCKASGYTFTTYFLHWVRQAPGQGLEWMGVIHPSGGSTTYAENFEGRVTMSRDTSTSTVYMELSSVRYEDTAVYYCARAGEYCRGIRCYIDGLDIWGQGTTVTVSS VL: DIQMTQSPSSLSASVGDRVTITCRASQGIRNDLGWYQQKPGKAPKRLIYAASSLQSGVPSRFSGSGSGTEFTLTISSLQPEDFATYYCLQHNDSPWTFGQGTKVEIK	binds
RUPA-51 (antibody, V domains shown, human IgG1; source: recombinant human IgG1, 293T (Protein A purified) or GenScript) VH: QVQLVQPGAEVKKPGASVKVSCKASGYIFSTYGISWVRQAPGQGLEWMGWTSSYSDDTNYAQKFQDRVTMTTDTSTSTAYMELRSLRSDDTAVYYCARGGDRGDGPRFYYYGLDVWGQGTTVTVSS VL: EIVLTQSPGTLSLSPGERATLSCRASQSLYNSYLAWYQQKPGQAPRLLIYGASSRATGIPGRFSGSGSGTDFSLTISRLEPEDFAVYYCSLYGRSSWTFGQGTKVEIK	binds
RUPA-83 (antibody, V domains shown, human IgG1; source: recombinant human IgG1, 293T (Protein A purified) or GenScript) VH: QVQLVQSGAEVKKPGASVKVSCKASGYIFTDYGITWVRQAPGQGLEWLGWISGYSYNTNYALKFQGRVTMTTDTSTSVTYMELRNLRSDDTAVYYCARDSRSSQLLQKFDLWGQGTLVTVSS VL: DIQLTQSPSSLSASVGDRVTITCRASQTTRNFLNWYQQKPGKAPELLIYAASTLQSGVPSRFSGSGSGTDFTLTIKNLQPEDFASYYCQQSFSSPTFGQGTKVEIK	binds
RUPA-29 (antibody, V domains shown, human IgG1; source: recombinant human IgG1, 293T (Protein A purified) or GenScript) VH: QVHLVESGGGVVQPGRSLRLSCAASGFTFRSYGMHWVRLAPGKGLEWVTAIWYDGSKKHFADSVKGRFTISRDNSKNTLYLQMSSLRVEDTAVYYCARDFAHGAFYPVDWGRGTLVTVSS VL: SYELTQPPSVSVSPGQTARITCSGDALPKKHAYWYQQKSGQAPVLVIYDDSKRPSGIPERFSGSSSGTMATLSISGAQVEDEAAYYCYSSDTSANYWVFGGGTKLTVL	binds
RUPA-75 (antibody, V domains shown, human IgG1; source: recombinant human IgG1, 293T (Protein A purified) or GenScript) VH: QVQLQQWGAGLLKPSETLSLTCGVNGGSFTDYYWTWIRQPPGKGLEWIGDINHSGITNYNPSLKSRLTLSVDTSKSHFSLRLNSVTAADTALYFCARRSSGYYRGSRYTGWLDPWGQGTLVTVSS VL: EIVMTQSPATLSVSPGERATLSCWASQSITSNLAWYQQKPGQAPRLLIYGASTRATGIPARFSGSGSGTGFTLTISTVQSEDFAVYYCQQYNNWPGLTFGGGTKVEIK	binds
